system: A498 complex spheroids with HUVEC/MSC, growth; test: Anticancer human tumor A498 cell line growth inhibition [AhR]; conditions: second compound 0.316 µM; first compound 0.3 µM; active = viability on the fitted dose curve at most 10% of control; inactive = the rest;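 note: luminescence signal used as a surrogate for viable cells; seven day exposure starting three days after spheroid seeding; luminescence viability scaled so 100% equals DMSO vehicle wells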
// allowed return values: active, inactive

COMPOUND	GROUP
O=C(C=Cn1cnc(-c2cc(C(F)(F)F)cc(C(F)(F)F)c2)n1)NNc1cnccn1 + Cc1cncc(-c2nc(NCCc3c[nH]c4ccccc34)c3ncn(C(C)C)c3n2)c1	inactive
Nc1ncn(C2CC(O)C(CO)S2)c(=O)n1 (centres undefined) + CC(CO)NC(=O)c1cc(-c2ccc(Cl)cc2)nn(-c2cnn(C)c2)c1=O	inactive
O=C(C=Cn1cnc(-c2cc(C(F)(F)F)cc(C(F)(F)F)c2)n1)NNc1cnccn1 + Cc1ccccc1N=Nc1ccc(NC(=O)c2ccnn2C)c(C)c1	inactive
CCc1c2c(nc3ccc(O)cc13)-c1cc3c(c(=O)n1C2)COC(=O)[C@]3(O)CC + Cc1cncc(-c2nc(NCCc3c[nH]c4ccccc34)c3ncn(C(C)C)c3n2)c1	inactive
CC(C)CC(NC(=O)C(Cc1ccccc1)NC(=O)c1cnccn1)B(O)O (centres undefined) + Cc1cncc(-c2nc(NCCc3c[nH]c4ccccc34)c3ncn(C(C)C)c3n2)c1	active

From here, focus on the item given below.
Problem: Record request — test call for CCN(c1cc(-c2ccc(CN3CCOCC3)cc2)cc(C(=O)NCc2c(C)cc(C)[nH]c2=O)c1C)C1CCOCC1 + Cc1cncc(-c2nc(NCCc3c[nH]c4ccccc34)c3ncn(C(C)C)c3n2)c1
Solution: inactive

---

system: A498 complex spheroids with HUVEC/MSC, growth; assay: Anticancer human tumor A498 cell line growth inhibition [AhR]; details: second compound 0.1 µM; first compound 0.00949 µM; active = viability on the fitted dose curve at most 10% of control; inactive = the rest;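 note: luminescence signal used as a surrogate for viable cells; seven day exposure starting three days after spheroid seeding; luminescence viability scaled so 100% equals DMSO vehicle wells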
// allowed return values: yes (1) = active, no (0) = inactive

Example entries begin here.
COMPOUND	GROUP
CC(C)CC(NC(=O)C(Cc1ccccc1)NC(=O)c1cnccn1)B(O)O (stereo not drawn) + Cc1cncc(-c2nc(NCCc3c[nH]c4ccccc34)c3ncn(C(C)C)c3n2)c1	yes (1)
Nc1ncn(C2CC(O)C(CO)S2)c(=O)n1 (stereo not drawn) + Cc1cncc(-c2nc(NCCc3c[nH]c4ccccc34)c3ncn(C(C)C)c3n2)c1	no (0)

Problem: Record request — test call for Nc1ncn(C2CC(O)C(CO)S2)c(=O)n1 (stereo not drawn) + Cc1ccccc1N=Nc1ccc(NC(=O)c2ccnn2C)c(C)c1
Solution: no (0)

---

tested on: A498 complex spheroids with HUVEC/MSC, growth; assay: Anticancer human tumor A498 cell line growth inhibition [AhR]; details: second compound 10 µM; first compound 0.003 µM; stronger effect = lower value;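 note: luminescence signal used as a surrogate for viable cells; seven day exposure starting three days after spheroid seeding; luminescence viability scaled so 100% equals DMSO vehicle wells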
Binary label based on viability, T/C with cut-off 30%: below gives t, not below gives f.

MOLECULE	TARGET_UNDER_TEST	GROUP
CC(C)CC(NC(=O)C(Cc1ccccc1)NC(=O)c1cnccn1)B(O)O (centres undefined) + Cc1cncc(-c2nc(NCCc3c[nH]c4ccccc34)c3ncn(C(C)C)c3n2)c1	A498 complex spheroids with HUVEC/MSC, growth	t
Nc1ncn(C2CC(O)C(CO)S2)c(=O)n1 (centres undefined) + CC(CO)NC(=O)c1cc(-c2ccc(Cl)cc2)nn(-c2cnn(C)c2)c1=O	A498 complex spheroids with HUVEC/MSC, growth	f
CCc1c2c(nc3ccc(O)cc13)-c1cc3c(c(=O)n1C2)COC(=O)[C@]3(O)CC + Cc1cncc(-c2nc(NCCc3c[nH]c4ccccc34)c3ncn(C(C)C)c3n2)c1	A498 complex spheroids with HUVEC/MSC, growth	t
CC(C)CC(NC(=O)C(Cc1ccccc1)NC(=O)c1cnccn1)B(O)O (centres undefined) + Cc1ccccc1N=Nc1ccc(NC(=O)c2ccnn2C)c(C)c1	A498 complex spheroids with HUVEC/MSC, growth	f
Nc1ncn(C2CC(O)C(CO)S2)c(=O)n1 (centres undefined) + Cc1ccccc1N=Nc1ccc(NC(=O)c2ccnn2C)c(C)c1	A498 complex spheroids with HUVEC/MSC, growth	f
Nc1ncn(C2CC(O)C(CO)S2)c(=O)n1 (centres undefined) + Cc1cncc(-c2nc(NCCc3c[nH]c4ccccc34)c3ncn(C(C)C)c3n2)c1	A498 complex spheroids with HUVEC/MSC, growth	t
CCc1c2c(nc3ccc(O)cc13)-c1cc3c(c(=O)n1C2)COC(=O)[C@]3(O)CC + CC(CO)NC(=O)c1cc(-c2ccc(Cl)cc2)nn(-c2cnn(C)c2)c1=O	A498 complex spheroids with HUVEC/MSC, growth	f

From here, focus on the item given below.
Problem: Confirm or reject: viability, T/C of CCc1c2c(nc3ccc(O)cc13)-c1cc3c(c(=O)n1C2)COC(=O)[C@]3(O)CC + Cc1ccccc1N=Nc1ccc(NC(=O)c2ccnn2C)c(C)c1 lies strictly below 30%
Solution: f
